Assay: physchem
Conditions: 37 °C, pH 8, aqueous buffer, kinetic from dmso stock, KH (pH 8.0) uptake assay buffer
readout label: solubility kinetic

molecule	readout label	val
OC1(c2ccc(Cl)cc2)c2ccccc2C2=NCCN21 (stereo not shown) [Compound A, reference compound]	solubility kinetic	≥ 30 µM

---

Target: CYP2B6 (Homo sapiens)
Sequence (P20813 1-491): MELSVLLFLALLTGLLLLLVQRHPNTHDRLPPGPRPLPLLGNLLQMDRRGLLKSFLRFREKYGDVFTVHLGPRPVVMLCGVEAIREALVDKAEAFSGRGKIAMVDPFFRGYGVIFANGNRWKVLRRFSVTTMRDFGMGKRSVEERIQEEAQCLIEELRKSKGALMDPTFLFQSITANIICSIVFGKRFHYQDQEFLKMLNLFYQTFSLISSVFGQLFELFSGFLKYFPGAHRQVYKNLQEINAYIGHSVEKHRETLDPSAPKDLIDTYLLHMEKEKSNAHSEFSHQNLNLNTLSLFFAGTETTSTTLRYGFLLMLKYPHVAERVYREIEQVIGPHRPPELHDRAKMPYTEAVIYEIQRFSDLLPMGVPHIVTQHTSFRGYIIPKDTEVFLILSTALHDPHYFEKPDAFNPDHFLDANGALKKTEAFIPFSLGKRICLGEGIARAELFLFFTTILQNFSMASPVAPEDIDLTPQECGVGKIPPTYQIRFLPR
Conditions: microsomes
pIC50: −log10 of the molar value.

molecule	pIC50
Clc1ccc(C2(OCC3OCCO3)c3ccccc3C3=NCCN32)cc1 (stereo not shown)	5.13
